Source of measurements: ChEMBL document CHEMBL1147206

System: Human gammaherpesvirus 4
Test: TPA-induced EBV early antigen activation in Raji cells at 0.32 nmol relative to control
Parameter: EBV-EA activation (%)

> print(dat)
                                    compound  assay.result
 1       COc1cc(/C=C/Cc2ccc(OC)c(O)c2O)ccc1O          95.7
 2  COc1c(C/C=C/c2ccccc2)ccc(O)c1O [HYDROXYOBUSTYRENE]           100
 3  COc1cc(/C=C/Cc2ccc(O)c(O)c2OC)ccc1OC(C)=O           100
 4  COc1cc(/C=C/C(=O)CC(=O)/C=C/c2ccc(O)c(OC)c2)ccc1O           100
 5  COc1cc(/C=C/Cc2ccc(OC)c(OCC=C(C)C)c2OCC=C(C)C)ccc1OCC=C(C)C          83.3
 6               COc1cc(O)ccc1C/C=C/c1ccccc1           100
 7  COc1cc(/C=C/Cc2ccc(OC)c(O)c2O)ccc1OC(C)=O           100
 8  COc1cc(/C=C/Cc2ccc(OC)c(OCC=C(C)C)c2O)ccc1O          87.1
 9       COc1cccc(OCC=C(C)C)c1C/C=C/c1ccccc1          92.7
10  COc1c(C/C=C/c2ccccc2)ccc(O)c1C/C=C/c1ccccc1           100
11            COc1ccc(C/C=C/c2ccccc2)c(O)c1O           100
12  COc1cc(/C=C/Cc2ccc(OC)c(OCC=C(C)C)c2O)ccc1OCC=C(C)C          89.1
13           COc1c(O)ccc(C/C=C/c2ccccc2)c1OC           100
14  COc1ccc(C/C=C/c2ccccc2)c(OCC=C(C)C)c1OCC=C(C)C          88.6
15     COc1ccc(C/C=C/c2ccccc2)c(OCC=C(C)C)c1          91.7
16          COc1ccc(C/C=C/c2ccccc2)c(OC)c1OC           100
17  COc1c(C/C=C/c2ccccc2)cc(C/C=C/c2ccccc2)c(O)c1OC           100
18           COc1ccc(C/C=C/c2ccccc2)c(OC)c1O           100
19               COc1cccc(O)c1C/C=C/c1ccccc1           100
20       COc1cc(OCC=C(C)C)ccc1C/C=C/c1ccccc1          87.6
21  COc1c(C/C=C/c2ccccc2)cc(C/C=C/c2ccccc2)c(OC)c1OC           100
22  COc1cc(/C=C/Cc2ccc(OC)c(O)c2OCC=C(C)C)ccc1O          88.1
23             COc1ccc(C/C=C/c2ccccc2)c(O)c1           100
24   COc1c(C/C=C/c2ccccc2)ccc(OCC=C(C)C)c1OC          91.5
25    COc1ccc(C/C=C/c2ccccc2)c(OCC=C(C)C)c1O          90.6
26    COc1ccc(C/C=C/c2ccccc2)c(O)c1OCC=C(C)C          90.8
27  COc1c(C/C=C/c2ccccc2)ccc(OCC=C(C)C)c1OCC=C(C)C          88.9
28           COc1ccc(C/C=C/c2ccccc2)c(O)c1OC           100
29       COc1cc(/C=C/Cc2ccc(O)c(O)c2OC)ccc1O          95.7
